Test system: LN-18 (Glioblastoma)
Assay: combination Emax (second highest fraction inhibited in the dose matrix, 72 h); higher = more inhibition; extreme values may be limits of the assay
# Lookup of reported combination Emax keyed by entry

| Compound | combination Emax |
| --- | --- |
| COc1nnc2ccc(N3CCC(c4ccc(OCCN5CCN(C)C(=O)[C@H]5C)cc4)CC3)nn12 [AZD5153] + Cc1c2c(nn1C)CSCc1cc(n(C)n1)CSc1cc(c3ccccc3c1)OCCCc1c(C(=O)O)n(C)c3c-2c(Cl)ccc13 [AZD5991] (first compound max 1 µM, 7x7, partner max 1 µM) | 0.616 |
| CC1(C)CCC(CN2CCN(c3ccc(C(=O)NS(=O)(=O)c4ccc(NCC5CCOCC5)c([N+](=O)[O-])c4)c(Oc4cnc5[nH]ccc5c4)c3)CC2)=C(c2ccc(Cl)cc2)C1 [Venetoclax] + Cc1cc2ncnn2cc1Nc1ncc2c(n1)n(C1CCOCC1)c(=O)n2C [AZD7648] (first compound max 1 µM, 7x7, partner max 10 µM) | 0.378 |
| CCN(CCO)CCCOc1ccc2c(Nc3cc(CC(=O)Nc4cccc(F)c4)[nH]n3)ncnc2c1 [AZD2811] + C=CCn1c(=O)c2cnc(Nc3ccc(N4CCN(C)CC4)cc3)nc2n1-c1cccc(C(C)(C)O)n1 [AZD1775] (first compound max 1 µM, partner max 1 µM) | 0.458 |
| COc1cc2ncnc(Nc3ccc(F)c(Cl)c3)c2cc1OCCCN1CCOCC1 [Gefitinib] + CC(C)n1c(=O)n(C)c2cnc3cc(F)c(-c4ccc(OCCCN5CCCCC5)nc4)cc3c21 [AZD1390] (first compound max 10 µM, 7x7, partner max 0.3 µM) | 0.146 |
| NC1(C(=O)N[C@@H](CCO)c2ccc(Cl)cc2)CCN(c2ncnc3[nH]ccc23)CC1 [Capivasertib] + C[C@@H]1COCCN1C2=NC(=NC(=C2)C3(CC3)[S@](=N)(=O)C)C4=C5C=CNC5=NC=C4 [AZD6738] (first compound max 10 µM, 7x7, partner max 10 µM) | 0.846 |
| CC1(C)CCC(CN2CCN(c3ccc(C(=O)NS(=O)(=O)c4ccc(NCC5CCOCC5)c([N+](=O)[O-])c4)c(Oc4cnc5[nH]ccc5c4)c3)CC2)=C(c2ccc(Cl)cc2)C1 [Venetoclax] + CCN(CCO)CCCOc1ccc2c(Nc3cc(CC(=O)Nc4cccc(F)c4)[nH]n3)ncnc2c1 [AZD2811] (first compound max 1 µM, 7x7, partner max 1 µM) | 0.488 |
| CN(CCO)CC[C@H](CSc1ccccc1)Nc1ccc(S(=O)(=O)NC(=O)c2ccc(N3CCC([C@@H](O)c4ccccc4-c4ccc(Cl)cc4)CC3)cc2)cc1S(=O)(=O)C(F)(F)F [AZD4320] + CN(C)CCCOc1ccc(-c2ccc3ncc4c(c3c2)n(C2CCOCC2)c(=O)n4C)cn1 [AZD0156] (first compound max 1 µM, 7x7, partner max 1 µM) | 0.222 |
| NC1(C(=O)N[C@@H](CCO)c2ccc(Cl)cc2)CCN(c2ncnc3[nH]ccc23)CC1 [Capivasertib] + Cn1cnc2c(F)c(Nc3ccc(Br)cc3Cl)c(C(=O)NOCCO)cc21 [Selumetinib] (first compound max 10 µM, 7x7, partner max 10 µM) | 0.603 |
| COc1cccc(OCCCN)c1-c1cc(Nc2cnc(C#N)cn2)n[nH]1 [Prexasertib] + CN(C)CCCOc1ccc(-c2ccc3ncc4c(c3c2)n(C2CCOCC2)c(=O)n4C)cn1 [AZD0156] (first compound max 1 µM, 7x7, partner max 1 µM) | 0.752 |
| CN(CCO)CC[C@H](CSc1ccccc1)Nc1ccc(S(=O)(=O)NC(=O)c2ccc(N3CCC([C@@H](O)c4ccccc4-c4ccc(Cl)cc4)CC3)cc2)cc1S(=O)(=O)C(F)(F)F [AZD4320] + CCN(CCO)CCCOc1ccc2c(Nc3cc(CC(=O)Nc4cccc(F)c4)[nH]n3)ncnc2c1 [AZD2811] (first compound max 1 µM, 7x7, partner max 1 µM) | 0.584 |
| C=CCn1c(=O)c2cnc(Nc3ccc(N4CCN(C)CC4)cc3)nc2n1-c1cccc(C(C)(C)O)n1 [AZD1775] + C[C@@H]1COCCN1C2=NC(=NC(=C2)C3(CC3)[S@](=N)(=O)C)C4=C5C=CNC5=NC=C4 [AZD6738] (first compound max 1 µM, partner max 10 µM) | 0.736 |
| Cc1cc2ncnn2cc1Nc1ncc2c(n1)n(C1CCOCC1)c(=O)n2C [AZD7648] + C=CCn1c(=O)c2cnc(Nc3ccc(N4CCN(C)CC4)cc3)nc2n1-c1cccc(C(C)(C)O)n1 [AZD1775] (first compound max 10 µM, partner max 1 µM) | 0.366 |
| CN(CCO)CC[C@H](CSc1ccccc1)Nc1ccc(S(=O)(=O)NC(=O)c2ccc(N3CCC([C@@H](O)c4ccccc4-c4ccc(Cl)cc4)CC3)cc2)cc1S(=O)(=O)C(F)(F)F [AZD4320] + C[C@@H]1COCCN1C2=NC(=NC(=C2)C3(CC3)[S@](=N)(=O)C)C4=C5C=CNC5=NC=C4 [AZD6738] (first compound max 1 µM, 7x7, partner max 10 µM) | 0.847 |
